Provide the recorded polymerase ribozyme fitness (log ratio) for the entries that follow.
B1: TPR t1 (parent)
chain: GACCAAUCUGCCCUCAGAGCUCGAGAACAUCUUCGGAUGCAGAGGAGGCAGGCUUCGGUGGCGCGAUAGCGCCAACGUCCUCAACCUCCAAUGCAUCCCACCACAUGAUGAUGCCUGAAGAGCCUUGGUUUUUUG

- Variants of: B1
- assay-details: polymerase ribozyme fitness, log enrichment relative to wild type (log ratio); higher = more active; in vitro selection for triplet polymerase activity

1) GACCAAUCUGCCCUCAGAGCUCGAGAACAUCUUCGGAUGCAGAGGAGGCAGGCUUUGGUGGCGCGAUAGCGCCAACGUCCUCAACCUCCAAUGCAUCCCACCACAUGAUGAUGCCUGAACAGCCUUUGUUUUUUG	2.09
2) GACCAAUCUGCCCUCAGAGCUCGAGAACAGCUUGGGAUGCAGAGGAGGCAGGCUUAGGUGGCGCGAUAGCGCCAACGUCCUCAACCUCCAAUGCAUCCCACCACAUGAAGCUGCCUUAAGAGCCUUGGUUCCUUG	-6.83
3) GACCAAUCUGCCCUCAGAGCUCGAGAACAUCUUCGGAUGCAGAGGAGGCAGGCUUCGGCGGCGCGAUAGCCCCAACGUCCUCAACCUCCAAUGCAUCCCACCACAUGAUGAUGCCUGAAGAGCCUUGGUUUUUUG	-3.63
4) GACCAAUCUGCCCUCAGAGCUCGAGAACAUCUUCGGAUGCAGAGGAGGCAGGCUUCGGUCGCGCGAUAGCGCCAACGUCCUCCACCUCCAAUGCAUCCCACCACAUGAUGAUGCCUGAAGAGCCUUGGUUUUUUG	-0.586

Please give polymerase ribozyme fitness (log ratio) for each item listed below.
1. GACCAACGUGCUCUCAGACCUCGAGAACAUCUUCGGAUGCAGAGGAGGCAGGCUUCGGUGGCACGUUAGCGCCAACGUCCUCAACCUCCAAUGCAUCCCACCACAUGAUGAUGCAUGAAGAGCCUUGCUUUUUUG
2. GACCGAUCUGCCCUCAGAGCUCGAGAACAUCUUCGGAUGCAGAGGAGGGAGGCUUCGGUGGCGCGAUAGCGCCAACGUCCUCAACCUCCAAUGCAUCCCACCACAUGAUGAUGCCUGAAGAGCCUUCAUUUUUUG

Data returned:
[-4.6, -2.99]

Please give polymerase ribozyme fitness (log ratio) for each item listed below.
1. GACCAAUCUGCCCUCAGAGCUCGAGAACAUCUUCGGAUGCAGAGGAGGCAGGCUUCGGUGGCGCGAUAGCGCCAACGUCCUCAACCUCCAAUGCCUCCCACCACAUGAUAAUGCCUGAAGAGCCUUGGUUUUUUG
2. GACCAAUCUGCCCUCAGAGCUCGAGAACAUCUUCGGAUGCAGAGGAGGCAGGCUUCGGUGGCGCGAUAGCGGCAACGUCCUCAACCUCCAAUGCAUCCCACCACAUGAUGAUGCCUGAAGAGCCUUGGUUUUUUU
3. GACCAAUCUGCCCUCAGAGCUCUAGAACAUCUUCGGAUGCAGAGGAGGCAGGCUUCGGUGGCGCGAUAGCGCCAACGUCCUCAACCUCCAAUGCAUCCCACCACAUGAUGAUGCCUGAAGAGUCUUGGUUUUUUG
4. GACCAAUCUGCCCUCAGAGCUCGAGAACAUCUUCGGAUGCAGAGGAGGCAGGCUUCGGUGGCGCGAUAGCGUCAACGUCCUCAAUCUCCAAUGCAUCCCACCAGAUGAUGAAGCCUGAAGAUCCUUGGUUUUGUG
5. GACCAAUCUUCCCUCAGAGCUCGAGGACAUCUUCGGAUGCAGAGGAGGCAGGCUUCGGUGGCGCGAUAGCGCCAACGUCCUCAACCUCCAAUGCAUCCCACCACAUGAUGAUGCCUGAAGAGCCUUGGUUUUUUG
6. GACCAAUCUGCCCUCAGAGCUCGAGAAGAUCUUCGGAUGCAGAGGAGGCAGGCUUCGGUGGCGCGAUAGCGGCAACGUCCUCAACCUCCAAUGCAUCCCACCACAUGAUGAUGCCUGAAGAGCCUUGGUUUUUUG
7. GACCAAUUUGCCCUCAGAGCUCGAGAACAUCUUCGGAUGCAGAGGAGGCAGGCUUCGGUGGCGCGAUAGUGCCAACGUCCUCAACCUCCAAUGCAUUCCACCACAUGAUGAUGCCUGAAGAGCUUUGGUUAUUUG

Data returned:
-2.49
-0.702
-4.37
-6.97
-2.71
-2.2
0.416
